B1: library; a variant is named by its letters at X, in order (parent)
chain: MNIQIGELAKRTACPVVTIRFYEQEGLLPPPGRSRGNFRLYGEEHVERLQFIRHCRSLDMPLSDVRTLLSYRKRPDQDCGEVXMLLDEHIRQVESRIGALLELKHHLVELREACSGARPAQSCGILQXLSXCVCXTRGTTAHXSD

Variants of: B1
Experiment: sfGFP reporter fluorescence (15 h) (µM FITC); higher = stronger transcriptional activation
Conditions: library round: Round 2; ligand: 30 µM Zn
# sfGFP reporter fluorescence >= 2 gives yes (1), anything below gives no (0)

SGDDP I90L V108N; no (0)
NLDDP G124A L129A; no (0)
NGDAP D64T Q127G; no (0)
NGDDW R74Q G138A; no (0)
NIDAK M84A L107C; yes (1)
NMDAK L107C; yes (1)
NGADP M60L D64K; yes (1)
TGSDP V108L; no (0)
NIEDP L107C; yes (1)

Could you now look at the following variant, please?
Decide: is the reported value of sfGFP reporter fluorescence for TGDDP R96A E109A equal to or greater than 2?
no (0)
